- experimentSummary: Aqueous solubility of solvents
- Assay type: physicochemical
- testParameters: solubility of the solvent in water
- Source text: This Example illustrates that Compound Number 1 is unusually effective at dissolving pesticides given that it has a water solubility which is low.
outcomeMeasure: Aqueous solubility (% w/w)

Example cases with answers are listed next.
compound: OCC1CCCO1 (stereo not shown) [Tetrahydrofurfuryl alcohol]
unitName: % w/w
valueMeasured: 100
--
compound: C[S+](C)[O-] [DMSO]
unitName: % w/w
valueMeasured: 100

I = CC(C)[C@@H]1CC[C@@H](C)CC1=O [Menthone]
II = CN1CCCC1=O [N-Methyl pyrrolidone]
III = CCCCOC(=O)c1ccccc1 [n-Butylbenzoate]
IV = CC(=O)O[C@@H]1C[C@H]2CC[C@]1(C)C2(C)C (racemic) [Isobornyl acetate]
Q. Ordering criterion: Aqueous solubility; begin with the maximum. Returns: the labels listed in the requested order.
A. II, III, I, IV
(II: 100 % w/w, III: 0.1 % w/w, I: 0.030 % w/w, IV: 0.003 % w/w)
